Target: GST-tagged ROR gamma ligand binding domain (LBD) (Homo sapiens, UniProt P51449)
Construct: purchased Invitrogen
Sequence (P51449 269-508 limits assumed): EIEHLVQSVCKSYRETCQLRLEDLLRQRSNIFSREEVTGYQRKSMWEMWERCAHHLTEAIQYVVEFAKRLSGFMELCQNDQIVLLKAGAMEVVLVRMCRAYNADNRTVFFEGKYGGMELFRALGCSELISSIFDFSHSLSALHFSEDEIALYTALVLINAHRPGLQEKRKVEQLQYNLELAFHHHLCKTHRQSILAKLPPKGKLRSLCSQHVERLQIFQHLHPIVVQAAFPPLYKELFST
Assay: TR-FRET assay for ROR gamma (LanthaScreen co-activator peptide recruitment)
Format: biochemical
Settings: compound 1 μM; TR-FRET ratio 520/495, percent of control
Values of inhibition at 1 µM strictly less than 70% map to label 1, and values of at least 70% map to label 0.

Consider the worked cases shown below.
CCn1c(C(C)(C)Oc2ccc(F)cc2F)nc2cc(NC(=O)Cc3ccc(S(=O)(=O)CC)cc3)ccc21    label 0
CCS(=O)(=O)c1ccc(CC(=O)Nc2ccc(OC3(c4ccc(Cl)cc4F)CC3)c(F)c2)cc1    label 0
CCS(=O)(=O)c1ccc(CC(=O)Nc2ccc(OC(C)(C)c3ccc(F)cc3Cl)nc2)cc1    label 0
CCS(=O)(=O)c1ccc(CC(=O)Nc2ccc(C#CC(C)(C)Oc3ccc(Cl)c(F)c3)c(F)c2)cc1    label 0
CCS(=O)(=O)c1ccc(CC(=O)Nc2ccc(OC3(c4ccc(Cl)cc4F)CCC3)cc2)cc1    label 0

(Q) Lab log: compare recorded inhibition at 1 µM with 70%; is it strictly lower for CCn1c(C(C)(C)Oc2ccc(NC(=O)Cc3ccc(S(=O)(=O)CC)cc3)cc2F)nc2cc(Cl)ccc21 ?
(A) label 0

(Q) Also CCS(=O)(=O)c1ccc(CC(=O)Nc2ccc(OC3(c4ccc(Cl)c(Cl)c4)CC3)nc2)cc1 ?
(A) label 1

(Q) Also CCS(=O)(=O)c1ccc(CC(=O)Nc2cc(F)c(OC(C)(C)c3ncc(Cl)cc3Cl)c(F)c2)cc1 ?
(A) label 1

(Q) Also CCS(=O)(=O)c1ccc(CC(=O)Nc2ccc3c(c2)nc(C(C)(C)Oc2ccc(C(F)(F)F)cc2)n3C)cc1 ?
(A) label 0

(Q) Also CCS(=O)(=O)c1ccc(CC(=O)Nc2ccc(OC3(c4ccc(Cl)c(F)c4)CCOCC3)cc2)cc1 ?
(A) label 0

(Q) Also CCS(=O)(=O)c1ccc(CC(=O)Nc2ccc(OC(C)(C)c3cc(Cl)cc(Cl)c3)cc2)cc1 ?
(A) label 1

Origin of values: patent US9718817B2
